Record form. Attribute: TGI. Fill in for each entry.
- Tested on: RPMI-8226 leukemia
- assay_notes: NCI tumour cell line growth inhibition, 48 h
Numbers only here, please. The scale is µM.

Problem: Entry "CCCCN1CCN(c2ccc3nc(-c4ccc5nc(-c6ccc(OCC)c(OCC)c6)[nH]c5c4)[nH]c3c2)CC1" , system RPMI-8226 leukemia: what TGI was measured?
Solution: 2.06

Problem: Param item: "CN(C)/C=C/c1c2c(nc3ccccc13)C(=O)c1ccccc1C2=O"
Solution: 3.49

Problem: Param item: "FC(F)(F)c1[nH]ncc1-c1nc2ccc3[nH]ncc3c2c2c1CCCC2"
Solution: 6.66

====

Record form. Attribute: TGI. Fill in for each entry.
- System: HL-60(TB) leukemia
- assay_notes: NCI tumour cell line growth inhibition, 48 h

Problem: TGI lookup needed for CC#CCCCC1(C)CCCNC1=S (centres undefined) , thanks.
Solution: > 10 µM

Problem: Param item: O=C1CSC(C(N=Nc2ccc(Cl)cc2)c2nc3ccccc3[nH]2)=N1 (centres undefined)
Solution: > 100 µM

Problem: Param item: Clc1ccc(C2=NOC3C4CCC(C4)C23)cc1 (centres undefined)
Solution: > 100 µM

Problem: Param item: "CC(C)N(/C(F)=N\C(=O)Nc1ccccc1C(F)(F)F)C(C)C"
Solution: > 100 µM

Problem: Param item: CC12CCC(O)CC1=CCC1C2CCC2(C)C(c3cccnc3)=CCC12 (centres undefined)
Solution: > 100 µM

Problem: Param item: "Cc1cc2c(C(C)C)c(O)c(O)c(C=Nc3ccccc3)c2c(O)c1-c1c(C)cc2c(C(C)C)c(O)c(O)c(C=Nc3ccccc3)c2c1O"
Solution: > 100 µM

Problem: Param item: "COc1cc(C(=O)OCCn2[nH]c(-c3ccc(Cl)cc3)nc2=S)cc(OC)c1OC"
Solution: > 100 µM

Problem: Param item: "COC[C@@H](N=CN1CCc2cc(OC)c(OC)cc2C1)C(C)(C)C"
Solution: > 100 µM

Problem: Param item: NC(=S)N/N=C1\CCCCC1C(O)(C(F)(F)Cl)C(F)(F)Cl (centres undefined)
Solution: > 10 µM

====

- System: OVCAR-4 ovarian
- assay_notes: NCI tumour cell line growth inhibition, 48 h
Record form. Attribute: TGI. Fill in for each entry.

Problem: TGI lookup needed for "COc1ccc(/C=C(/c2ccccc2)c2c(C)cc(C)c(/C(=C\c3ccc(OC)cc3)c3ccccc3)c2N=Nc2cc(C)cc(C)c2)cc1" , thanks.
Solution: > 100 µM

Problem: Param item: "Cc1nnc([C@@]2(C)CC[C@H]3[C@@H](CCC4=CC(=O)CC[C@@]43C)[C@@H]2CC#N)o1"
Solution: > 100 µM

Problem: Param item: "Cc1ccc(C)c2c(N=Nc3ccccc3[N+](=O)[O-])c(O)[nH]c12"
Solution: > 100 µM

Problem: Param item: "C=CCN1C[C@@H](C)N([C@@H](c2ccc(C(=O)N(CC)CC)cc2)c2cccc(OC)c2)C[C@@H]1C"
Solution: > 100 µM

Problem: Param item: "CC(=O)/C(=C\c1c(-c2ccccc2)[nH]c2ccccc12)S(=O)(=O)c1ccccc1"
Solution: > 54.2 µM

Problem: Param item: O=C1C2CC=CCC2C(=O)N1n1c(Cc2ccccc2)n[nH]c1=O (configuration not stated)
Solution: > 100 µM

Problem: Param item: CCCCS(=O)CC(CO)NC(=O)/C=C/c1c(C)[nH]c(=O)[nH]c1=O (configuration not stated)
Solution: 26.4 µM

Problem: Param item: "CCOC(=O)N1N(c2ccccc2)C(=O)C1(c1ccccc1)c1ccccc1"
Solution: > 100 µM

Problem: Param item: "Clc1ccc(N2CCC(N3CCCC3)CC2)cc1-c1nc2ccccc2[nH]1"
Solution: > 91.4 µM

Problem: Param item: "O=C1CCCN1CCCN=c1cc2n(-c3ccc(Cl)cc3)c3ccccc3nc-2cc1Nc1ccc(Cl)cc1"
Solution: 21.8 µM

Problem: Param item: "CC(=O)OCCOCCN1CCN(c2c(O)c3c(c(O)c2Cl)C(=O)C=CC3=O)CC1"
Solution: 1.32 µM

Problem: Param item: C/C=C1\CCC2c3[nH]c4ccccc4c3CCN2C1 (configuration not stated)
Solution: > 100 µM

Problem: Param item: "COc1cc2ccc(CC(N)=O)cc2cc1OC"
Solution: > 100 µM

Problem: Param item: "Cc1cc2c(=O)[nH]c(N)nc2nc1C"
Solution: > 100 µM

Problem: Param item: "N=C(N)SCc1ccc(N=C=S)cc1"
Solution: 27.4 µM

Problem: Param item: CC(OC(=O)N(N(CCCl)S(C)(=O)=O)S(C)(=O)=O)c1ccc([N+](=O)[O-])cc1 (configuration not stated)
Solution: > 100 µM

Problem: Param item: COc1ccc(C(=O)OC2C(OC3C(O)COC(O[C@H]4C[C@H]5[C@@H]6CC=C7C[C@@H](O)CC[C@]7(C)[C@H]6CC[C@]5(C)[C@H]4[C@H](C)C(=O)CCC(C)C)C3OC(C)=O)OCC(O)C2O)cc1 (some centres not stated)
Solution: 19.6 µM

Problem: Param item: CCN1C(=O)N(CC)C2C1NN=c1s/c(=C\c3cccc([N+](=O)[O-])c3)c(=O)n12 (configuration not stated)
Solution: > 100 µM

Problem: Param item: "Cc1ccc(S(=O)(=O)N2CCCSCCN(S(=O)(=O)c3ccc(C)cc3)CCCSCC2)cc1"
Solution: > 100 µM

Problem: Param item: "C[C@@](O)(/C=C/[C@H]1CC=CC(=O)O1)[C@@H](C[C@@H](O)\C=C/C=C\C=C\CO)OP(=O)(O)O"
Solution: 25.5 µM

Problem: Param item: "CC1(C)N=C(N)N=C(N)N1c1ccc(Cl)c(Cl)c1"
Solution: > 100 µM

Problem: Param item: "NC(=O)SCC(=O)Nc1ccc2ncccc2c1"
Solution: > 100 µM
